# testProtocol: Compound solubility in water
readoutType: solubility (µg/mL)

Illustrative cases are given below, each with its answer.
{"columns": ["compound", "readoutType", "numericReadout"],
 "data": [
  ["CC(=O)N1CCN(c2cccc3c2ncn3C(=O)NCC2(CC(C)C)CC2)CC1", "solubility", 7],
  ["CC(C)CCNC(=O)n1cnc2cc(-c3cncnc3)ccc21 [Example 103b]", "solubility", 11.9],
  ["O=C(NCCc1cccnc1)n1cnc2ccccc21", "solubility", 12.9],
  ["CC(C)CCNC(=O)n1cnc2c(N3C[C@H](C)O[C@@H](C)C3)cccc21 (stereo in doubt)", "solubility", 11],
  ["O=C(NCCc1ccccc1)n1cnc2ccc(C(F)(F)F)nc21 [Example 66a]", "solubility", 6]
]}

P: CCCCNC(=O)n1cnc2c(F)cccc21
Q: CN1CC2CC1CN2c1cccc2c1ncn2C(=O)NCCC1CCC(F)(F)C1 (stereo not drawn)
Looking at P and Q , which one comes out lower in solubility terms? Pick one; state its label. P
(P: 20.6 µg/mL, Q: 39 µg/mL)

Data provenance is patent US20220380319A1.
